Each entry below carries its reported Activity.
# System: Saccharomyces cerevisiae
# assayOverview: Growth stimulation in Saccharomyces cerevisiae CG379 transformed with empty vector at 5 to 100 uM after 2 days
# Format: organism-based
# experimentalParameters: in vivo, 48 h
Respond with the bare value in %.

Worked examples, 2 compounds total:
* CS(=O)(=O)/C=C/[C@H](CC(=O)O)NC(=O)OCC1c2ccccc2-c2ccccc21 | 1.7
* CC(C)[C@H](NC(=O)OCC1c2ccccc2-c2ccccc21)C(=O)N[C@H](/C=C/S(C)(=O)=O)CC(=O)O | -7

The record that follows has no Activity shown yet.
Find the recorded Activity belonging to CC[C@H](C)[C@H](NC(=O)OCc1ccccc1)C(=O)N[C@H](/C=C/S(C)(=O)=O)CC(=O)O and report it.
-3.3
